Sequence of the target: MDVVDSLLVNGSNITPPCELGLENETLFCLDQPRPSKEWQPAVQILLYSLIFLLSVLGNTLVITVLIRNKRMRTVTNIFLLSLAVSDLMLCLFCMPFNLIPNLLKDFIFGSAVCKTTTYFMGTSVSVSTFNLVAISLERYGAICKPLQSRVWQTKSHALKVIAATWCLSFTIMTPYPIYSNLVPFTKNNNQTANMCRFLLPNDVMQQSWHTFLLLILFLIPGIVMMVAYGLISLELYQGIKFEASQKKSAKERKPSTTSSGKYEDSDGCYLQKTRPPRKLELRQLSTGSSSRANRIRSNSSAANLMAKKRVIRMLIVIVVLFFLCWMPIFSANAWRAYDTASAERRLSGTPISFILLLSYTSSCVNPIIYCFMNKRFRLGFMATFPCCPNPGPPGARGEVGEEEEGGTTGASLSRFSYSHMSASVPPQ
For each record, write down the corresponding IC50.
Form entry: value (nM) — number only.

Kindly indicate its recorded IC50. Item: CCOc1cccc(-n2cc(C(=O)N3CCN(c4cnc5ccccc5c4)CC3)nc2-c2ccc(C)cc2F)c1
0.24

Kindly indicate its recorded IC50. Item: O=C(c1cn(-c2ccc3c(c2)OCCO3)c(-c2ccc(F)cc2)n1)N1CCN(c2cnc3ccccc3c2)CC1
0.12

Kindly indicate its recorded IC50. Item: COc1cccc(-n2cc(C(=O)N3CCN(c4ccc5ccccc5n4)CC3)nc2-c2ccc(C)cc2)c1
16

Kindly indicate its recorded IC50. Item: Cc1ccc(-c2nc(C(=O)N3CCN(c4cc(C(=O)O)c5ccccc5c4)CC3)cn2-c2ccc3c(c2)OCCO3)c(F)c1
0.03
